Data origin: paper PMC10786891

SYSTEM: T1, EsCas13d, nuclease-dead (Eubacterium siraeum, UniProt B0MS50, R295A;H300A;R849A;H854A)
T1 sequence: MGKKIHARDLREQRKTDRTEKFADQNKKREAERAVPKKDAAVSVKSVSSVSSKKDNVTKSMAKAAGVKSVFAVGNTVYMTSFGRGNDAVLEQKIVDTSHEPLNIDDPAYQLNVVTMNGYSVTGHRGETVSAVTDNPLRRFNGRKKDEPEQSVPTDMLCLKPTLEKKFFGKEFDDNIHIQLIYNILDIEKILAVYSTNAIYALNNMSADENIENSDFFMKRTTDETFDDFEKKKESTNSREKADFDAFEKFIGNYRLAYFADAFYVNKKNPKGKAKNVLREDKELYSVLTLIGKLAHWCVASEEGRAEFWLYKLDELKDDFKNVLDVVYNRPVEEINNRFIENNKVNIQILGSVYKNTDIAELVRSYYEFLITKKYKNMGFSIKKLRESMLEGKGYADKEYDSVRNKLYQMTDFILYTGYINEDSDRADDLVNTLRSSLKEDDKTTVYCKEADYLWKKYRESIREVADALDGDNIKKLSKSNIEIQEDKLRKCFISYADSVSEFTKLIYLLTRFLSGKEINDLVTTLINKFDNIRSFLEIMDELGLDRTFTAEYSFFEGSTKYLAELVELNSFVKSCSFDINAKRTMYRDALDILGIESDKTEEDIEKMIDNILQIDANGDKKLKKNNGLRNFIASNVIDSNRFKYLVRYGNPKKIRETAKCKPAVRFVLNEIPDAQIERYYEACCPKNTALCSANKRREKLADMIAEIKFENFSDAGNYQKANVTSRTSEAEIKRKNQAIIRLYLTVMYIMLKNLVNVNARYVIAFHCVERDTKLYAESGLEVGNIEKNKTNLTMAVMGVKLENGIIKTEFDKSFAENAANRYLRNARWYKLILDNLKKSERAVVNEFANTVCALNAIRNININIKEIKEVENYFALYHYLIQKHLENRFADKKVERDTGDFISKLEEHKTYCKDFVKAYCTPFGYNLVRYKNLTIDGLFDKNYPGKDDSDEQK
PROTOCOL_NOTES: crRNA (strand 1, pre-loaded); Mg2+; 40 mM Tris-HCl pH 7.5, 150 mM NaCl, 6 mM MgCl2, 1 mM DTT, 0.1% Tween-20, 0.2 mg/ml BSA; 25 C; 10 min per concentration, then washed
ASSAY_SETUP: tags: His6-TwinStrep-SUMO cleaved; N-terminal SNAP kept (SNAP-Surface 488); label: 3' end held by stalled T7 RNA polymerase
Reported pKd is given for each of the following binders.
API: returns pKd as number; meaning -log10 of concentration in mol/L.

{"BINDER": "target 2 MT 5'PFS AAC 3'PFS UGU (mixed) RNA 1: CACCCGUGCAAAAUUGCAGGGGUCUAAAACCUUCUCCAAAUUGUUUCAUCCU RNA 2: GGGAAUGGAUCCACAUCUACGAAUUCAACAGGAUGAAACAAUUUGGAGAAGUGUAGAUCGGAAGAGCACACGU", "MEASURED_PROPERTY": "pKd", "RECORDED_MEASUREMENT": 8.16}
{"BINDER": "target 1 MT 5'PFS AGU 3'PFS AAC (mixed) RNA 1: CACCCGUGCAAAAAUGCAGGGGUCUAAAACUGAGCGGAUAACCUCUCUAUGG RNA 2: GGGAAUGGAUCCACAUCUACGAAUUCAGUCCAUAGAGAGGUUAUCCGCUCAAACAGAUCGGAAGAGCACACGU", "MEASURED_PROPERTY": "pKd", "RECORDED_MEASUREMENT": 7.31}

*Q* Record request: pKd value, item target 1 insA 3' of 22,insG 3' of 6 (mixed) RNA 1: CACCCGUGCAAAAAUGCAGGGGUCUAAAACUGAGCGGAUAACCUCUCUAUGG RNA 2: GGGAAUGGAUCCACAUCUACGAAUUCGUACACAUAGAGAGGUUAUCCGGCUCACCGAGAUCGGAAGAGCACACGU
*A* 7.76
